- run-description: Selectivity index, ratio of IC50 for cytotoxicity against rat L6 cells to IC50 for growth inhibition of amastigote form of Trypanosoma cruzi Tulahuen C2C4 expressing LacZ infected in rat L6 cells
- Assay type: toxicity, cell-based
- experimental-context: read-out: Ratio IC50
parameter-measured: selectivity ratio

| compound | parameter-measured | value |
| --- | --- | --- |
| CCCCCCCCc1cccc2[nH]c(C)c(OC)c(=O)c12 | selectivity ratio | 1.5 |
| COc1ccccc1[C@@]12CC[C@@H](OC1)c1c2ccc2[nH]c(C)c(OC)c(=O)c12 | selectivity ratio | > 1 |
| COc1c(C)[nH]c2ccc3c(c2c1=O)[C@@H]1CC[C@H](O)[C@@]3(c2ccccc2)O1 | selectivity ratio | > 1 |
| COc1c(C)[nH]c2c(c1=O)[C@@H](CCCCCc1ccccc1)CC[C@H]2O | selectivity ratio | > 33 |
| COc1ccc(OC)c([C@@]2(O)c3ccc4[nH]c(C)c(OC)c(=O)c4c3[C@@H]3CC[C@H]2O3)c1 | selectivity ratio | > 1 |
| COc1c(CO)[nH]c2c(c1=O)[C@H](CCCCCc1ccccc1)CCC2 | selectivity ratio | > 4 |
| COc1c(CO)[nH]c2ccc3c(c2c1=O)[C@@H]1CCC[C@@]3(c2ccccc2)O1 | selectivity ratio | > 1.5 |
| COc1c(C)n(OC)c2c(c1=O)[C@@H](CCCC[C@H](O)c1ccccc1)CCC2 | selectivity ratio | > 3.5 |
| O=C(Cn1ccnc1[N+](=O)[O-])NCc1ccccc1 [BENZNIDAZOLE] | selectivity ratio | > 119 |
| COc1c(CO)n(OC)c2c(c1=O)[C@H](CCCCCc1ccccc1)CCC2 | selectivity ratio | > 6 |
| COc1cc(CCCCCc2ccccc2)c2c(=O)c(OC)c(C)[nH]c2c1OC | selectivity ratio | > 1.5 |
| COc1c(C)[nH]c2c(c1=O)[C@@H](CCCCCc1ccccc1)CC[C@H]2OC | selectivity ratio | 13.8 |
| COc1ccccc1[C@]12CC[C@H](O[C@@H]1OC)c1c2ccc2[nH]c(C)c(OC)c(=O)c12 | selectivity ratio | > 1 |
| COc1c(C)[nH]c2c(OC)ccc(CCCCCc3ccccc3)c2c1=O | selectivity ratio | > 12.5 |
| COc1c(C)[nH]c(CCCCCCCCCc2ccccc2)cc1=O | selectivity ratio | > 13 |
| CCCCCCCC[C@H]1CC[C@@H](O)c2[nH]c(C)c(OC)c(=O)c21 | selectivity ratio | 4 |
| COc1c(C)[nH]c2c(c1=O)[C@@H](CCCCCc1ccccc1)CCC2=O | selectivity ratio | 24.5 |
| CCCCCCCCCCCCc1cc(=O)c(OC)c(C)[nH]1 | selectivity ratio | > 6 |
| COc1cc(OC)cc(C2=CCCCc3c2ccc2[nH]c(C)c(OC)c(=O)c32)c1 | selectivity ratio | > 1.5 |
| COc1c(C)[nH]c2c(c1=O)[C@@H](CCCCCc1ccccc1)CCC2 | selectivity ratio | 5 |

---

- System: Trypanosoma cruzi
- run-description: Growth inhibition of amastigote form of Trypanosoma cruzi Tulahuen C2C4 expressing LacZ infected in rat L6 cells assessed as reduction in parasitic growth incubated for 96 hra by CPRG/Nonidet reagent based inverted microscopic analysis
- Type: functional, organism-based
Hi! Just check whether IC50 is below 5 µM. Below gives True, equal or above gives False.

| smiles-string | classification |
| --- | --- |
| CCCCCCCC[C@H]1CC[C@@H](O)c2[nH]c(C)c(OC)c(=O)c21 | False |
| COc1c(CO)n(OC)c2c(c1=O)[C@H](CCCCCc1ccccc1)CCC2 | True |
| COc1c(CO)[nH]c2c(c1=O)[C@H](CCCCCc1ccccc1)CCC2 | False |
| O=C(Cn1ccnc1[N+](=O)[O-])NCc1ccccc1 | True |
| COc1c(C)[nH]c2ccc3c(c2c1=O)[C@@H]1CC[C@H](O)[C@@]3(c2ccccc2)O1 | False |
| COc1c(C)[nH]c2c(c1=O)[C@@H](CCCCCc1ccccc1)CCC2=O | True |
| COc1ccc(OC)c([C@@]2(O)c3ccc4[nH]c(C)c(OC)c(=O)c4c3[C@@H]3CC[C@H]2O3)c1 | False |
| COc1c(C)[nH]c(CCCCCCCCCc2ccccc2)cc1=O | True |
| COc1c(C)[nH]c2c(c1=O)[C@@H](CCCCCc1ccccc1)CCC2 | True |
| COc1c(C)[nH]c2c(c1=O)[C@@H](CCCCCc1ccccc1)CC[C@H]2OC | True |
